src = patent US10696639B2

# measured-target: wild-type HIV-1 protease (Human immunodeficiency virus type 1 group M subtype B, UniProt P04585)
param class (str): category from IC50; see ranges A = under 20 nM, B = from 20 nM up to 30 nM, C = 30 nM and over

IN: Into which bin does this molecule go? CC1(OC(=O)N[C@@H](Cc2ccccc2)C(=O)NCCCCN2C(=N)NC(c3ccccc3)(c3ccccc3)C2=O)CC1
OUT: A

IN: Into which bin does this molecule go? COC(=O)N[C@@H](Cc1cccc(OC)c1)C(=O)N[C@@H](C)CCCN1C(=N)N[C@](CC(C)C)(c2ccccc2)C1=O
OUT: C

IN: Into which bin does this molecule go? COC(=O)N[C@@H](Cc1ccccc1)C(=O)N[C@H](CCCN1C(=N)N[C@](CC(C)C)(c2ccccc2)C1=O)C(C)C
OUT: B

IN: Into which bin does this molecule go? COC(=O)N[C@@H](Cc1ccc(OC)cc1)C(=O)N[C@@H](C)CCCN1C(=N)N[C@](CC(C)C)(c2ccccc2)C1=O
OUT: A

IN: Into which bin does this molecule go? COC(=O)N[C@@H](Cc1ccc2ccccc2c1)C(=O)N[C@@H](C)CCCN1C(=N)N[C@](CC(C)C)(c2ccccc2)C1=O
OUT: C

IN: Into which bin does this molecule go? COC(=O)N[C@@H](Cc1ccccc1)C(=O)NCCCCN1C(=N)NC(CCC(C)C)(c2ccccc2)C1=O (some centres unmarked)
OUT: B

IN: Into which bin does this molecule go? N=C1NC(c2ccccc2)(c2ccccc2)C(=O)N1CCCCNC(=O)[C@@H](N)Cc1cccnc1
OUT: C

IN: Into which bin does this molecule go? COC(=O)N[C@@H](Cc1cccc(Cl)c1)C(=O)N[C@H](CCCN1C(=N)N[C@](CC(C)C)(c2ccccc2)C1=O)C(C)C
OUT: A

IN: Into which bin does this molecule go? COC(=O)N[C@@H](Cc1ccccc1)C(=O)N[C@@H](C)CCCN1C(=N)N[C@](CC(C)C)(c2ccccc2)C1=O
OUT: A

IN: Into which bin does this molecule go? COC(=O)N[C@@H](Cc1ccccc1Cl)C(=O)N[C@@H](C)CCCN1C(=N)N[C@](CC(C)C)(c2ccccc2)C1=O
OUT: A

IN: Into which bin does this molecule go? COC(=O)N[C@@H](Cc1ccccc1OC)C(=O)N[C@@H](C)CCCN1C(=N)N[C@](CC(C)C)(c2ccccc2)C1=O
OUT: A

IN: Into which bin does this molecule go? COC(=O)N[C@@H](Cc1ccccc1Cl)C(=O)NC(CCCN1C(=N)N[C@](CC(C)C)(c2ccccc2)C1=O)CC1CC1 (some centres unmarked)
OUT: C

IN: Into which bin does this molecule go? COC(=O)N[C@@H](Cc1ccccn1)C(=O)NCCCCN1C(=N)NC(c2ccccc2)(c2ccccc2)C1=O
OUT: B

IN: Into which bin does this molecule go? CC(C)OC(=O)N[C@@H](Cc1ccccc1)C(=O)NCCCCN1C(=N)NC(c2ccccc2)(c2ccccc2)C1=O
OUT: B

###

Kindly supply the reported pIC50 values for the records listed here.
# pIC50 = -log10(concentration in molar units)

pIC50 on wild-type HIV-1 protease (Human immunodeficiency virus type 1 group M subtype B) for COC(=O)N[C@@H](Cc1cccc(Cl)c1)C(=O)N[C@@H](C)CCCN1C(=N)N[C@](CC(C)C)(c2ccccc2)C1=O is 7.70

pIC50 on wild-type HIV-1 protease (Human immunodeficiency virus type 1 group M subtype B) for COC(=O)N[C@@H](Cc1ccccc1Cl)C(=O)N[C@H](CCCN1C(=N)N[C@](CC(C)C)(c2ccccc2)C1=O)C1CC1 is 7.64

pIC50 on wild-type HIV-1 protease (Human immunodeficiency virus type 1 group M subtype B) for CC[C@@H](CCCN1C(=N)N[C@](CC(C)C)(c2ccccc2)C1=O)NC(=O)[C@H](Cc1ccccc1Cl)NC(=O)OC is 8.22

pIC50 on wild-type HIV-1 protease (Human immunodeficiency virus type 1 group M subtype B) for N=C1NC(c2ccccc2)(c2ccccc2)C(=O)N1CCCCNC(=O)[C@@H](N)Cc1ccncc1 is 7.47

pIC50 on wild-type HIV-1 protease (Human immunodeficiency virus type 1 group M subtype B) for COC(=O)N[C@@H](Cc1ccccc1)C(=O)N[C@H](CCCN1C(=N)N[C@](CC(C)C)(c2ccccc2)C1=O)C(F)(F)F is 7.49

pIC50 on wild-type HIV-1 protease (Human immunodeficiency virus type 1 group M subtype B) for COC(=O)N[C@@H](Cc1ccccc1)C(=O)NCCC[C@@H](C1CC1)N1C(=N)N[C@](CC(C)C)(c2ccccc2)C1=O is 6.22

pIC50 on wild-type HIV-1 protease (Human immunodeficiency virus type 1 group M subtype B) for COC(=O)N[C@@H](Cc1ccc(F)cc1)C(=O)N[C@@H](C)CCCN1C(=N)N[C@](CC(C)C)(c2ccccc2)C1=O is 7.57

pIC50 on wild-type HIV-1 protease (Human immunodeficiency virus type 1 group M subtype B) for COC(=O)N[C@@H](Cc1cccc(Cl)c1)C(=O)N[C@H](CCCN1C(=N)N[C@](CC(C)C)(c2ccccc2)C1=O)C1CC1 is 7.37

pIC50 on wild-type HIV-1 protease (Human immunodeficiency virus type 1 group M subtype B) for COC(=O)N[C@@H](Cc1ccccc1)C(=O)NCCC[C@H](C1CC1)N1C(=N)N[C@](CC(C)C)(c2ccccc2)C1=O is 8.15

pIC50 on wild-type HIV-1 protease (Human immunodeficiency virus type 1 group M subtype B) for COC(=O)N[C@@H](Cc1ccccc1)C(=O)NCCCCN1C(=N)NC(c2ccccc2)(c2ccccc2)C1=O is 8.00

pIC50 on wild-type HIV-1 protease (Human immunodeficiency virus type 1 group M subtype B) for COC(=O)N[C@@H](Cc1ccccc1)C(=O)N[C@@H](C)CCCN1C(=N)NC(c2ccccc2)(c2ccccc2)C1=O is 8.70

pIC50 on wild-type HIV-1 protease (Human immunodeficiency virus type 1 group M subtype B) for COC(=O)N[C@@H](Cc1ccncc1)C(=O)NCCCCCN1C(=N)NC(c2ccccc2)(c2ccccc2)C1=O is 7.04

pIC50 on wild-type HIV-1 protease (Human immunodeficiency virus type 1 group M subtype B) for CC[C@H](CCCNC(=O)[C@H](Cc1ccccc1)NC(=O)OC)N1C(=N)N[C@](CC(C)C)(c2ccccc2)C1=O is 6.27

pIC50 on wild-type HIV-1 protease (Human immunodeficiency virus type 1 group M subtype B) for CC(C)CC1(c2ccccc2)NC(=N)N(CCCCNC(=O)[C@@H](N)Cc2ccccc2)C1=O (some centres unmarked) is 7.72

###

# measured-target: wild-type HIV-1 protease (Human immunodeficiency virus type 1 group M subtype B, UniProt P04585)
measured-endpoint: pIC50
# pIC50 = -log10(concentration in molar units)

// field: pIC50; key: COC(=O)N[C@@H](Cc1cccnc1)C(=O)NCCCCN1C(=N)NC(c2ccccc2)(c2ccccc2)C1=O [Example 8] ; value = 7.92

// field: pIC50; key: COC(=O)N[C@@H](Cc1ccncc1)C(=O)NCCCCN1C(=N)NC(c2ccccc2)(c2ccccc2)C1=O [Example 13] ; value = 8.15

// field: pIC50; key: COC(=O)N[C@@H](Cc1ccncc1)C(=O)NCCCCN1C(=N)NC(CCC(C)C)(c2ccccc2)C1=O (stereo partly drawn) [Example 22] ; value = 7.22
